meta.source: patent US7973066B2

tested on: HT29 human colon carcinoma cell line; experiment: In vitro cytotoxicity and combination studies, ATPlite; details: read-out: cytotoxic effect IC50; HT29 cells, 72 hours, ATPlite
ASSAY_READOUT: IC50 (µM)

compound="O=C1[O][Pt]2([NH][C@@H]3CCCC[C@H]3[NH]2)[O]C1=O [oxaliplatin]" display_unit=µM recorded_number=36
